biological target: Inhibitor of nuclear factor kappa-B kinase subunit beta (Homo sapiens) (UniProt O14920); conditions: at 1 µM
Sequence (O14920 whole entry): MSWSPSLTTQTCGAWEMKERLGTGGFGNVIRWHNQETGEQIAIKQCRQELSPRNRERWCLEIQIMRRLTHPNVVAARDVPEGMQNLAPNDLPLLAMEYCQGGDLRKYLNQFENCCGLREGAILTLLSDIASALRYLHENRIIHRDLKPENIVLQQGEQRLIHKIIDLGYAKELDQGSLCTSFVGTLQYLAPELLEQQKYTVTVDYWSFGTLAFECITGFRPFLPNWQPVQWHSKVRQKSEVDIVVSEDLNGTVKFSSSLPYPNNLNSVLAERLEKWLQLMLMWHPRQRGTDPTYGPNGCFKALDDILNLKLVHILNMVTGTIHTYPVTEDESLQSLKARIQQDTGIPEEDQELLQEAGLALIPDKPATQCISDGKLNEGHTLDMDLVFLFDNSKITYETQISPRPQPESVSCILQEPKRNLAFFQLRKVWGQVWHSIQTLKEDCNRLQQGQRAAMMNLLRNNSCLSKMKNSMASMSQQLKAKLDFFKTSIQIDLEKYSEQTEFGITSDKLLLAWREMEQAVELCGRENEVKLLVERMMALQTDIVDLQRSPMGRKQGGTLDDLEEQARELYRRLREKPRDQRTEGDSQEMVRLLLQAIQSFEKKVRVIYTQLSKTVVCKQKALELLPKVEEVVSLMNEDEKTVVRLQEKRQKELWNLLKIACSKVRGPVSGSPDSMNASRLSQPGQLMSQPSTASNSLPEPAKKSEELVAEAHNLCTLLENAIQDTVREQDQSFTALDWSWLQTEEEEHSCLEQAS
outcome measure: residual activity
The answer should read as a number with its unit following.

Please review the entries below; each comes with its answer.
1. CO[C@H]1[C@@H](OC)C[C@H](C)[C@@H](OC)C2=CC(=O)C=C(NC(=O)/C(C)=C/C=C/[C@H](OC)[C@@H](OC(N)=O)/C(C)=C/[C@@H]1C)C2=O: 111%
2. CC[n+]1c(/C=C/N(C)c2ccccc2)n(-c2ccccc2)c2ccc(-c3nc4ccccc4s3)cc21: 105%
3. Cc1cc(Nc2nc(-c3ccccc3)nc3ccccc23)n[nH]1: 78%

Query: Which residual activity value is on record for `COc1ccc(OC)c2c(=S)c3ccccc3[nH]c12` ?
Reply: 95%
